# system tested: Choline trimethylamine-lyase (UniProt A0AAJ0YC41)
# Sequence (A0AAJ0YC41 whole entry): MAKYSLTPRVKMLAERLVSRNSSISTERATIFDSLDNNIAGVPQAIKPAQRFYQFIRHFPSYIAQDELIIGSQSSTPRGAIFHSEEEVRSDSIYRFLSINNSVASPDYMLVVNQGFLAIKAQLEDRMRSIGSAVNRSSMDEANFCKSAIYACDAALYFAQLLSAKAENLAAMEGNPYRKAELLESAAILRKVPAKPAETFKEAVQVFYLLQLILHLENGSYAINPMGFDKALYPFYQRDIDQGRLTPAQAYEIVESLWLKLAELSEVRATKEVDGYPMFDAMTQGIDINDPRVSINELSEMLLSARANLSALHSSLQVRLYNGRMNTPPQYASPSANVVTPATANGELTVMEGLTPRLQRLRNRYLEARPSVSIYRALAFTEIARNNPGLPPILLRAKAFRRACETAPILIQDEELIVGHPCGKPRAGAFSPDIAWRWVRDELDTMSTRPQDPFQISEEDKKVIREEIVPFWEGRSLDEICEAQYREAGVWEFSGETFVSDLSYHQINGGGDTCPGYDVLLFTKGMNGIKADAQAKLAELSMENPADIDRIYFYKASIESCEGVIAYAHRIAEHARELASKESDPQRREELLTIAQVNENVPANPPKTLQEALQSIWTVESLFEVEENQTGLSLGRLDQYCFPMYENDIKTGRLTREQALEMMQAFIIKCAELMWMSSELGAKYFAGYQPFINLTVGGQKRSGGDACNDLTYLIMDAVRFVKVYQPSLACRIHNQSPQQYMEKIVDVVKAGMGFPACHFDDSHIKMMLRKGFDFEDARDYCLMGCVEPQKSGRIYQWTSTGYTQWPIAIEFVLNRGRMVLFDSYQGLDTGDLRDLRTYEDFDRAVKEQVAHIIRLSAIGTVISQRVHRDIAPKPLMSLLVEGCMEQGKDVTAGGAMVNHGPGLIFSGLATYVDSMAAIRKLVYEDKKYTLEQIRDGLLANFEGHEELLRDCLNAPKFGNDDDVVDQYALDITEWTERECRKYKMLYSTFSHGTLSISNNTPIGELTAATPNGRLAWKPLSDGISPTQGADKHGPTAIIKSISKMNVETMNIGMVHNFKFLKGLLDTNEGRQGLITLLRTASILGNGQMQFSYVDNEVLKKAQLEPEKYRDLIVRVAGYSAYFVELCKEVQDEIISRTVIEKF
observation type: IC50 (µM)
Numbers only, in µM.

// returns reported IC50 for input C[N+](C)(CF)CCOC(=O)c1ccc(O)cc1 [US20260001833, Compound 3]
3.6
